Form field: Ki (one value per entry).
- STUDY_TARGET: human EP3 receptor (Homo sapiens, UniProt P43115)
- Construct: expressed in transfected cells
- Sequence (P43115 whole entry): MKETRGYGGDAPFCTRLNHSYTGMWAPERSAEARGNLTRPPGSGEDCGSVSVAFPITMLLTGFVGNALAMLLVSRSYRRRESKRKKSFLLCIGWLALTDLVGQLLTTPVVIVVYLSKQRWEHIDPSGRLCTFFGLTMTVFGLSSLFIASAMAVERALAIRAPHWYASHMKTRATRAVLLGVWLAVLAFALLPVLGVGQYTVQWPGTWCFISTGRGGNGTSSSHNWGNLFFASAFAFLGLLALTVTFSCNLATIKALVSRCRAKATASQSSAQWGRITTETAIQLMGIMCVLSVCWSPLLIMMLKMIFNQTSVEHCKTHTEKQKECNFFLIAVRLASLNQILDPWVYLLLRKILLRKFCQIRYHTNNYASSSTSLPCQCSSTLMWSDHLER
- ASSAY_EXPLANATION: Binding ability to human EP receptors ([3H]PGE2 displacement), EP3
- EXPERIMENTAL_CONTEXT: membranes from cells stably transfected with human EP3 receptor; 2.5 nM [3H]PGE2; Cheng-Prusoff from IC50; read-out: pKi EP3 (converted)

COc1ccc(-c2cc(C(=O)Nc3ccc(CC(=O)O)cc3)c(C)o2)cc1 | > 10 µM
O=C(O)Cc1ccc(NC(=O)c2coc(-c3ccc(OC(F)F)cc3)c2)cc1 | > 10 µM
Cc1ccccc1S(=O)(=O)NC(=O)Cc1ccc(NC(=O)c2cc(-c3ccc(OC(F)F)cc3)oc2C)cc1 | > 10 µM

Now look at this entry.
Prompt line: Given the molecule `Cc1oc(-c2ccc(OC(F)F)cc2)cc1C(=O)Nc1ccc(CC(=O)NS(=O)(=O)c2ccccc2C(F)(F)F)cc1` , what is its reported Ki?
Response line: > 3.16 µM

----------
- STUDY_TARGET: human EP2 receptor (Homo sapiens, UniProt P43116)
- Construct: expressed in transfected cells
- Sequence (P43116 whole entry): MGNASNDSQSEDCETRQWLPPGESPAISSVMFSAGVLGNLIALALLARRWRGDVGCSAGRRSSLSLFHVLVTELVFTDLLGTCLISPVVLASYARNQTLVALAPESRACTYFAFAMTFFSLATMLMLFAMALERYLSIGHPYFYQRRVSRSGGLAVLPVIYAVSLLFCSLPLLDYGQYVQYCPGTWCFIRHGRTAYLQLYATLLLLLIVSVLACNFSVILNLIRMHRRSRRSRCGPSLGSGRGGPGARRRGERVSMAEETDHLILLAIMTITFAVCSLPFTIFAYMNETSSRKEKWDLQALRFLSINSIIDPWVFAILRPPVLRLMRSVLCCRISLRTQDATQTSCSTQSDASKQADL
- ASSAY_EXPLANATION: Binding ability to human EP receptors ([3H]PGE2 displacement), EP2
- EXPERIMENTAL_CONTEXT: membranes from cells stably transfected with human EP2 receptor; 3 nM [3H]PGE2; Cheng-Prusoff from IC50; read-out: pKi EP2 (converted)
PROPERTY_MEASURED: Ki

COc1ccc(-c2cc(C(=O)Nc3ccc(CC(=O)O)cc3)c(C)o2)cc1 | > 10 µM
O=C(O)Cc1ccc(NC(=O)c2coc(-c3ccc(OC(F)F)cc3)c2)cc1 | > 10 µM
Cc1oc(-c2ccc(OC(F)F)cc2)cc1C(=O)Nc1ccc(CC(=O)O)cc1 | > 3.16 µM
Cc1oc(-c2ccc(OC(F)F)cc2)cc1C(=O)Nc1ccc(CC(=O)NS(=O)(=O)c2ccccc2C(F)(F)F)cc1 | > 3.16 µM
Cc1ccccc1S(=O)(=O)NC(=O)Cc1ccc(NC(=O)c2cc(-c3ccc(OC(F)F)cc3)oc2C)cc1 | > 0.316 µM

Prompt line: Given the molecule `COc1ccc(-c2cc(C(=O)Nc3ccc(CC(=O)NS(=O)(=O)c4ccccc4)cc3)c(C)o2)cc1` , what is its reported Ki?
Response line: > 1 µM

Prompt line: Given the molecule `Cc1oc(-c2ccc(OC(F)F)cc2)cc1C(=O)Nc1ccc(CC(=O)NS(=O)(=O)c2ccccc2)cc1` , what is its reported Ki?
Response line: > 1 µM

Prompt line: Given the molecule `Cc1ccccc1S(=O)(=O)NC(=O)Cc1ccc(NC(=O)c2coc(-c3ccccc3)c2)cc1` , what is its reported Ki?
Response line: > 0.1 µM

Prompt line: Given the molecule `Cc1oc(-c2ccc(OC(F)F)cc2)cc1C(=O)Nc1ccc(CC(=O)NS(=O)(=O)c2ccc(O)cc2)cc1` , what is its reported Ki?
Response line: > 3.16 µM

Prompt line: Given the molecule `Cc1oc(-c2ccccc2)cc1C(=O)Nc1ccc(CC(=O)NS(=O)(=O)c2ccccc2)cc1` , what is its reported Ki?
Response line: > 1 µM

Prompt line: Given the molecule `COc1ccc(-c2cc(C(=O)Nc3ccc(CC(=O)O)cc3)c(C(F)(F)F)o2)cc1` , what is its reported Ki?
Response line: > 10 µM

Prompt line: Given the molecule `Cc1cc(C(=O)NCc2ccc(C(=O)O)cc2)c(-c2ccccc2)o1` , what is its reported Ki?
Response line: > 10 µM

Prompt line: Given the molecule `Cc1noc(C)c1S(=O)(=O)NC(=O)Cc1ccc(NC(=O)c2cc(-c3ccc(OC(F)F)cc3)oc2C)cc1` , what is its reported Ki?
Response line: > 10 µM
